Test system: MTT (mouse pheochromocytoma)
Test: IC50 of cell viability (ATP content)
Conditions: (24 or 48 h)
Result Type: IC50 of cell viability

Check out these entries, answers already filled in.
INSERT INTO assay_data (molecule, result_type, measurement) VALUES
  ('C[C@]12CCC(=O)C=C1CC[C@@H]1[C@@H]2[C@@H](O)C[C@@]2(C)[C@H]1CC[C@]2(O)C(=O)COP(=O)([O-])[O-] [HYDROCORTISONE SODIUM PHOSPHATE]', 'IC50 of cell viability', '> 46 µM'),
  ('CC1=C(/C=C/C(C)=C/C=C/C(C)=C/C=C/C=C(C)/C=C/C=C(C)/C=C/C2=C(C)C(=O)CCC2(C)C)C(C)(C)CCC1=O [CANTHAXANTHIN (euglenanone)]', 'IC50 of cell viability', '> 46 µM');

Now take the following molecule into account.
Query CNC(C)[C@@H](O)c1ccccc1.Cl (stereo partly drawn) [EPHEDRINE (1R,2S) HYDROCHLORIDE] yields IC50 of cell viability of > 46 µM
